System: NCI-H460
Experiment: NCI tumour cell line growth inhibition, 48 h
The source made the active and inactive calls. Cut-off read from the data, not from the text of the source: active = GI50 up to about 1.1 µM and inactive = higher.
Tick one outcome: active, inactive

Recorded results for 3 molecules are shown here.
CC1(C)OC(C(=O)Nc2cc3c4ccccc4ccc3c3ccccc23)C(C(=O)N2CCCCC2)O1 (centres undefined)
active
[N-]=[N+]=NCC(=O)c1cnc(O)nc1O
inactive
O=[N+]([O-])c1ccc(/C=C(/c2ccc([N+](=O)[O-])o2)S(=O)(=O)c2ccccc2)o1
inactive

Please turn your attention to the following entry.
Task: For this molecule, state the assay outcome: N#CC(C#N)=C/C=C(\Sc1c(Cl)c(Cl)nc(Cl)c1Cl)c1ccc(Cl)cc1
Output: inactive
